target of assay: full-length beta-Catenin (Uniprot ID P35222) (Homo sapiens (Human)) (UniProt P35222)
Sequence (P35222 2-781 limits assumed): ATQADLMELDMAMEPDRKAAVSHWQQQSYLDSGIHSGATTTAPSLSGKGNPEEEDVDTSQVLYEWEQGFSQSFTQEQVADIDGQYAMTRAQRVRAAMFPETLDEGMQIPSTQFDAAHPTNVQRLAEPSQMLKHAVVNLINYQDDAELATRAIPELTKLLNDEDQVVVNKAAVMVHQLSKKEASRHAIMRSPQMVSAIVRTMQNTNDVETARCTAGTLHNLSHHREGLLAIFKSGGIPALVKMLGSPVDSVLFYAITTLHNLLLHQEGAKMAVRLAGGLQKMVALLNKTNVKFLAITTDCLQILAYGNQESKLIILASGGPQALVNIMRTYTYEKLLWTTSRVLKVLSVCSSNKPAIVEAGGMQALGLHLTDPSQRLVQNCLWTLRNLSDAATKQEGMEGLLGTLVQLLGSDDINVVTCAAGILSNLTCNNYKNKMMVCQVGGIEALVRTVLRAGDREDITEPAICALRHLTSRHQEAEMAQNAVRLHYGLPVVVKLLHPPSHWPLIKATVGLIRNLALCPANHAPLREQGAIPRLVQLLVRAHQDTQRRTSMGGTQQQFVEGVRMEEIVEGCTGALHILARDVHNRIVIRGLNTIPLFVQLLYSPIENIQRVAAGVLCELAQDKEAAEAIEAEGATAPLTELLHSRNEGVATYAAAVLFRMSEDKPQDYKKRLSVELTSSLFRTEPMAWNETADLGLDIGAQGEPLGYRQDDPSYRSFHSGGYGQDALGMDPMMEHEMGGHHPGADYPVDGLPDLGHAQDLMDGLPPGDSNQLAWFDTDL
procedure summary: fluorescence polarization competition, full-length beta-catenin with 5FAM-TCF4(10-53) probe as competitor
Starred links: 1 amine or outer side, 2 acyl side, 3 side chain; linkers in the order of their positions; H or OH if unused. Positions of bridges follow the written chain, without caps; N, C: chain ends. Non-standard residues stand in square brackets, D forms with d. Primed or numbered codes have the meaning given here. B5(4) = 2,2-bis(4-pentenyl)glycine = 2-amino-2-(pent-4-en-1-yl)hept-6-enoic acid (stitching residue), C=CCCCC(CCCC=C)(N[*:1])C(=O)[*:2]; RbGlu = 3-aminopentanedioic acid, R/S prefix not explained; SbGlu = 3-aminopentanedioic acid, R/S prefix not explained; Bta = N[C@@H](Cc1csc2ccccc12)C(=O)O; αAllylPro = C=CC[C@@]1(C(=O)O)CCCN1; S8 = C=CCCCCCC[C@](C)(N)C(=O)O; Nle = CCCC[C@H](N)C(=O)O
property label: pEC50
The read-out pEC50 is expressed as -log10 of concentration in moles per litre.

Some entries whose results are on file:
# binder, pEC50
records = [
    ("Ac-[αAllylPro]DI[B5(4)]DE[Nle]AFQ[S8]F[Bta]Q-NH2 (staple 1-4, 4-11) [I-657]", 7.34),
    ("Ac-[αAllylPro]DI[B5(4)][RbGlu]EAAFQ[S8]F[Bta]Q-NH2 (staple 1-4, 4-11) [I-675]", 5.34),
]

Please turn your attention to the following entry.
stdin: Which pEC50 value is on record for Ac-[αAllylPro][SbGlu]I[B5(4)]DEAAFQ[S8]F[Bta]Q-NH2 (staple 1-4, 4-11) [I-672] ?
stdout: 5.30
